# System: HCC827 (K-Ras wild type cell line)
# test details: Viability assay (CellTiterBlue, 72 hr) HCC827
# Type: cell-based
# test settings: Homo sapiens, GI50, CellTiterBlue, HCC827 K-Ras wild-type
experimental endpoint: IC50 (µM)
Please give a number only; it is taken to be in µM.

In [3]: df
Out[3]:
                                   compound                    target_or_system  unit_abbreviation  data_value
0  Cc1nc(C(C)C)oc1C(=O)Nc1nc(-c2ccc3c(c2)CCC(=O)N3Cc2cccnc2)cs1 [Compound 91]  HCC827 (K-Ras wild type cell line)                 µM           3
1  COc1cccc(CN2C(=O)CCc3cc(-c4csc(NC(=O)c5oc(C)nc5C)n4)ccc32)c1 [Compound 76]  HCC827 (K-Ras wild type cell line)                 µM          17
2  Cc1nn(C(C)C)c(C)c1C(=O)Nc1nc(-c2ccc3c(c2)CCC(=O)N3)cs1 [Compound 52]  HCC827 (K-Ras wild type cell line)                 µM          10

**Q:** Form: Entry = COCCN1C(=O)CCc2cc(-c3csc(NC(=O)c4c(C)nn(C)c4C)n3)ccc21 [Compound 120] | System = HCC827 (K-Ras wild type cell line) | IC50 = ____
**A:** 4

* * *

# Tested on: Panc10.05-G12D
# test details: Viability assay (CellTiterBlue, 72 hr) Panc10.05
# Format: cell-based
# test settings: Homo sapiens, Panc1005, GI50, CellTiterBlue, Panc10.05 K-Ras G12D, read-out: 72 hr Cell Viability Panc10.05 (G12D)
pIC50: −log10 of the molar value.
Assign class by pIC50: not lower than 5 means Condition met; lower than 5 means Condition not met.

                                   compound        group_label
0  Cc1nn(C(C)C)c(C)c1C(=O)Nc1nc(-c2ccc3c(c2)CCC(=O)N3)cs1  Condition not met

**Q:** Determine whether this compound has pIC50 no lower than 5: Cc1nc(C(=O)Nc2nc(-c3ccc4c(c3)CCC(=O)N4)cs2)c(C)s1
**A:** Condition not met

**Q:** Entry to check: Cc1nn(-c2ccc(F)cc2)c(C)c1C(=O)Nc1nc(-c2ccc3c(c2)CCC(=O)N3)cs1
**A:** Condition met

**Q:** Also Cc1nc(C2CC2)oc1C(=O)Nc1nc(-c2ccc3c(c2)CCC(=O)N3Cc2ccccc2)cs1 , if possible.
**A:** Condition met

**Q:** Proceed to CCn1cc(C(=O)Nc2nc(-c3ccc4c(c3)CCC(=O)N4)cs2)cn1
**A:** Condition met

**Q:** Continue with Cn1cc(C(=O)Nc2nc(-c3ccc4c(c3)CCC(=O)N4)cs2)cn1
**A:** Condition not met

**Q:** Note, next up: Cc1nc(C)c(C(=O)Nc2nc(-c3ccc4c(c3)CCC(=O)N4CCn3cncn3)cs2)o1
**A:** Condition not met

**Q:** Now try CCc1nc(C)c(C(=O)Nc2nc(-c3ccc4c(c3)CCC(=O)N4CCOC)cs2)o1 .
**A:** Condition met

**Q:** One more compound: Cc1nn(Cc2ccccc2)c(C)c1C(=O)Nc1nc(-c2ccc3c(c2)CCC(=O)N3)cs1
**A:** Condition met

**Q:** Input Cc1nc(C(C)C)oc1C(=O)Nc1nc(-c2ccc3c(c2)CCC(=O)N3Cc2cccnc2)cs1
**A:** Condition met

**Q:** Follow-up item: Cc1nn(-c2ccccc2)cc1C(=O)Nc1nc(-c2ccc3c(c2)CCC(=O)N3)cs1
**A:** Condition not met

Source listed as patent US10344026B2.
